Tested on: L1210 leukemia ip in BDF1 mice, survival T/C
Assay: NCI In Vivo Anticancer Drug Screen. Data for tumor model L1210 Leukemia (intraperitoneal) in B6D2F1 (BDF1) mice
Details: endpoint: mean survival time; dose: 400.0 mg/kg/injection; schedule: Q01DX009 (ip); vehicle: Klucel (hydroxypropylcellulose) (HPC); higher = longer survival
Description: The antitumor activity of compounds was measured in mice bearing transplantable tumors. Survival or tumor size were measured and the results are expressed as the measurement made in the treated group (T) divided by the measurement made in the vehicle treated control group (C). The tumor model used in this assay is L1210 Leukemia (intraperitoneal) in B6D2F1 (BDF1) mice
Toxic doses and inconclusive results are not listed.
quantity: T/C

Worked cases, answers included:
{"molecule": "O=C(O)CCCCSCCSCCCCC(=O)O", "T/C": "86 % of control"}
{"molecule": "O=C(Nc1ccc(O)cc1)OCc1ccccc1", "T/C": "94 % of control"}
{"molecule": "CCOC(=O)C(C(=O)OCC)C1C=CCC1 (configuration not stated)", "T/C": "91 % of control"}
{"molecule": "O=C(/C=C/C(=O)Oc1ccc(Cl)cc1Cl)Oc1ccc(Cl)cc1Cl", "T/C": "97 % of control"}
{"molecule": "O=[N+]([O-])c1cccc(Oc2ncccc2[N+](=O)[O-])c1", "T/C": "94 % of control"}

Answer for every listed entry: what is its T/C? The entries follow.
1. CCCc1c(OCC)c(OC)c2c3c(c(-c4c(C)cc5c(CCC)c(OCC)c(OC)c6c5c4OC6OC)c(C)cc13)OC2OC (configuration not stated)
2. O=C1c2ccccc2C(=O)N1CNc1ccccc1S
3. O=C1c2cc(Cl)cc(Cl)c2-c2c1cc(Cl)cc2[N+](=O)[O-]

98 % of control
109 % of control
97 % of control

Answer for every listed entry: what is its T/C? The entries follow.
1. N#Cc1ccc2c(c1)Nc1ccccc1S2
2. Cc1cc(Cl)c(Cl)cc1NC(=O)c1cccc([N+](=O)[O-])c1
3. Cc1cccc(NC(=O)NCCCl)c1Cl

89 % of control
100 % of control
100 % of control

Per the records, this molecule ( COc1ccc(C(=Nc2ccc(C)cc2)c2ccccc2)cc1 ) has T/C equal to 107 % of control
